TARGET: T1, recombinant hAng2 (C-His, R&D Systems) (human, UniProt O15123 19-496)
T1 construct: Bought protein captured on an anti-His chip; not shown: C-terminal His tag
T1 sequence: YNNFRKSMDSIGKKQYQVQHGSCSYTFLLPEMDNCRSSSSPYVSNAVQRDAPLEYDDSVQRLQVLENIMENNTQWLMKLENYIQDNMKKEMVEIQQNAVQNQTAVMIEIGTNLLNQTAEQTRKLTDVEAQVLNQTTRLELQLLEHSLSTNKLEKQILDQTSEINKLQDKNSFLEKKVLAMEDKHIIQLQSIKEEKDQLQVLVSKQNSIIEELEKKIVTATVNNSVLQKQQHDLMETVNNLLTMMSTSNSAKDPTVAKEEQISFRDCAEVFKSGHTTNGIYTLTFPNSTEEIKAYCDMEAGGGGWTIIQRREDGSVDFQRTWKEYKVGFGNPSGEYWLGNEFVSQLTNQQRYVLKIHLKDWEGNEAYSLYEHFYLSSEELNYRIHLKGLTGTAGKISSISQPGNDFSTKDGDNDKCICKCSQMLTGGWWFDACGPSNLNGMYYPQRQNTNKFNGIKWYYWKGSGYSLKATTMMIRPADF
ASSAY: SPR, BIAcore T100, hAng2-His captured on anti-His CM5 chip, antibody flowed
kon reference
VALUE TYPE: kon

BINDER: SAIT-ANG-2-AB-3-D3 (IgG form) (antibody, V domains shown, Intact human antibody with human IgG1 constant region) VH: EVQLLESGGGLVQPGGSLRLSCAASGFTFSDYDMSWVRQAPGKGLEWVSGISSDDGNTYYADSVKGRFTISRDNSKNTLYLQMNSLRAEDTAVYYCARPTIDKYTLRGYYSYGMDVWGQGTLVTVSS VL: QSVLTQPPSASGTPGQRVTISCTGSSSNIGSNYVSWYQQLPGTAPKLLIYSDNKRPSGVPDRFSGSKSGTSASLAISGLRSEDEADYYCGTWDDSLNGYVFGGGTKLTVLG
VALUE TYPE: kon
RESULT: 1.16e+06 M⁻¹ s⁻¹

BINDER: SAIT-ANG-2-AB-2-E6 (IgG form) (antibody, V domains shown, Intact human antibody: VH cloned into a vector with the constant region and Fc region of human IgG1, VL into pFUSE2-CLIg-hl2 (light chain constant region)) VH: EVQLLESGGGLVQTGGSLRLSCAASGFTFSDYAMSWVRQAPGKGLEWVSAIYPDSGNKYYADSVKGRFTISRDNSKNTLYLQMNSLRAEDTAVYYCARHSSDPKVKSGYYDDGMDVWGQGTLVAVSS VL: QSVLTQPPSASGTPGQRVTISCSGSSSNIGNNAVNWYQQLPGTAPKLLIYADSNRPSGVPDRFSGSKSGTSASLAISGLRSEDEADYYCGSWDYSLSGYVFGGGTKLTVLG
VALUE TYPE: kon
RESULT: 1.22e+06 M⁻¹ s⁻¹

BINDER: SAIT-ANG-2-AB-4-F11 (IgG form) (antibody, V domains shown, Intact human antibody with human IgG1 constant region) VH: EVQLLESGGGLVQTGGSLRLSCAASGFTFSDYAMSWVRQAPGKGLEWVSSIYPDDGNTYYADSVKGRFTISRDNSKNTLYLQMNSLRAEDTAVYYCAKHPVRLNLHPMYYYYGMDVWGQGTLVTVSS VL: QSVLTQPPSASGTPGQRVTISCTGSSSNIGNNAVSWYQQLPGTAPKLLIYSDSQRPSGVPDRFSGSKSGTSASLAISGLRSEDEADYYCATWDYSLSAYVFGGGTKLTVLG
VALUE TYPE: kon
RESULT: 1.76e+06 M⁻¹ s⁻¹

BINDER: SAIT-ANG-2-AB-4-C11 (IgG form) (antibody, V domains shown, Intact human antibody with human IgG1 constant region) VH: EVQLLESGGGLVQPGGSLRLSCAASGFTFSDYAMSWVRQAPGKGLEWVSSIYPDDGNTYYADSVKGRFTISRDNSKNTLYLQMNSLRAEDTAVYYCARHTSHHTSIDGYYYYGMDGWGQGTLVTVSS VL: QSVLTQPPSASGTPGQRVTISCTGSSSNIGNNDVSWYQQLPGTAPKLLIYSDSKRPSGVPDRFSGSKSGTSASLAISGLRSEDEADYYCGSWDYSLSGYVFGGGTKLTVLG
VALUE TYPE: kon
RESULT: 833000 M⁻¹ s⁻¹

BINDER: SAIT-ANG-2-AB-8-A5 (IgG form) (antibody, V domains shown, Intact human antibody with human IgG1 constant region) VH: EVQLLESGGGLVQPGGSLRLSCAASGFTFSDYYMSWVRQAPGKGLEWVSGIYPSGGSTYYADSVKGRFTISRDNSKNTLYLQMNSLRAEDTAVYYCARDPSTLTYAGFDYWGQGTLVTVSS VL: QSVLTQPPSASGTPGQRVTISCSGSSSNIGNNYVTWYQQLPGTAPKLLIYADSHRPSGVPDRFSGSKSGTSASLAISGLRSEDEADYYCATWDYSLSGYVFGGGTKLTVLG
VALUE TYPE: kon
RESULT: 4.4e+06 M⁻¹ s⁻¹
